Every entry's value here was drawn from ChEMBL document CHEMBL3044850.

Test system: Alternaria solani
Protocol: Fungicidal activity against Alternaria solani assessed as growth inhibition at 50 ug/ml at 23 degC after 3 days
Type: functional
Run Conditions: 72 h, read-out: GI
Result Type: inhibition of growth at 50 µg/mL (%)
API: value field is a number in %; no unit string.

Some solved cases for reference:
>  <Compound String>
Cn1nc(C(F)(F)F)c(/C=N/OCc2cnc(Cl)s2)c1Oc1ccc(Br)cc1

>  <inhibition of growth at 50 µg/mL (%)>
12.4

$$$$
>  <Compound String>
Cc1ccc(Oc2c(/C=N/OCc3cnc(Cl)s3)c(C(F)(F)F)nn2C)cc1C

>  <inhibition of growth at 50 µg/mL (%)>
53.2

$$$$
>  <Compound String>
Cn1nc(C(F)(F)F)c(/C=N/OCc2cnc(Cl)s2)c1Oc1ccc(F)cc1

>  <inhibition of growth at 50 µg/mL (%)>
26.9

$$$$
>  <Compound String>
Cc1cccc(Oc2c(/C=N/OCc3cnc(Cl)s3)c(C(F)(F)F)nn2C)c1

>  <inhibition of growth at 50 µg/mL (%)>
28

$$$$

Now for the compound whose inhibition of growth at 50 µg/mL we want.
For the compound shown here, Cc1ccccc1Oc1c(/C=N/OCc2cnc(Cl)s2)c(C(F)(F)F)nn1C , give the reported inhibition of growth at 50 µg/mL. 42.6

###

System: Tetranychus cinnabarinus
Protocol: Insecticidal activity against Tetranychus cinnabarinus (carmine spider mite) in soybean tender shoots assessed as mortality at 0.2 mg/ml treated for 5 secs measured after 48 hr
Format: functional
mortality at 200 µg/mL overview
Supply the numeric figure in %, leaving out any unit text.

>  <Compound String>
Cn1nc(C(F)(F)F)c(/C=N/OCc2cnc(Cl)s2)c1Oc1ccc(Cl)cc1Cl

>  <Result Number>
7.2

$$$$

Query (compound): Cn1nc(C(F)(F)F)c(/C=N/OCc2cnc(Cl)s2)c1Oc1ccc(F)cc1 ; field requested: mortality at 200 µg/mL 13.4

Can you check Cc1ccc(Oc2c(/C=N/OCc3cnc(Cl)s3)c(C(F)(F)F)nn2C)cc1C next? 6.4

Param item: Cn1nc(C(F)(F)F)c(/C=N/OCc2cnc(Cl)s2)c1Sc1ccccc1 14.4

Now try Cn1nc(C(F)(F)F)c(/C=N/OCc2cnc(Cl)s2)c1Oc1ccccc1 . 11.2

Also need Cc1ccccc1Oc1c(/C=N/OCc2cnc(Cl)s2)c(C(F)(F)F)nn1C , thanks. 9.3

How about Cc1ccc(Oc2c(/C=N/OCc3cnc(Cl)s3)c(C(F)(F)F)nn2C)cc1 ? 3.4

Another compound to check: Cc1cccc(Oc2c(/C=N/OCc3cnc(Cl)s3)c(C(F)(F)F)nn2C)c1 2.3
